The origin of these recorded values is paper PMC5656002.

Biological target: TEM-1 β-lactamase (purified) (UniProt P62593 24-286)
Sequence (P62593 24-286): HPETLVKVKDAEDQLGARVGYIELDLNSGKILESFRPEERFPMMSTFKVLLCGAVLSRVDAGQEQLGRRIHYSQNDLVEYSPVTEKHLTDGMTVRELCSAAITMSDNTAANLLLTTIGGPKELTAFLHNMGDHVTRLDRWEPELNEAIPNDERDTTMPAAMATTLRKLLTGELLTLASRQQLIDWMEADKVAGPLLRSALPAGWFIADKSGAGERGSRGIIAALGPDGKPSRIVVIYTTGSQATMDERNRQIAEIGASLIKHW
Experiment: enzyme inhibition assay
result-type: Ki (nM)
Answers are plain numbers, in nM.

# annotated cases, reported Ki shown
BLIP R160G (natural protein) AGVMTGAKFTQIQFGMTRQQVLDIAGAENCETGGSFGDSIHCRGHAAGDYYAYATFGFTSAAADAKVDSKSQEKLLAPSAPTLTLAKFNQVTVGMTRAQVLATVGQGSCTTWSEYYPAYPSTAGVTLSLSCFDVDGYSSTGFYRGSAHLWFTDGVLQGKGQWDLV; 236
BLIP E73K (natural protein) AGVMTGAKFTQIQFGMTRQQVLDIAGAENCETGGSFGDSIHCRGHAAGDYYAYATFGFTSAAADAKVDSKSQKKLLAPSAPTLTLAKFNQVTVGMTRAQVLATVGQGSCTTWSEYYPAYPSTAGVTLSLSCFDVDGYSSTGFYRGSAHLWFTDGVLQGKRQWDLV; 835
BLIP W112D (natural protein) AGVMTGAKFTQIQFGMTRQQVLDIAGAENCETGGSFGDSIHCRGHAAGDYYAYATFGFTSAAADAKVDSKSQEKLLAPSAPTLTLAKFNQVTVGMTRAQVLATVGQGSCTTDSEYYPAYPSTAGVTLSLSCFDVDGYSSTGFYRGSAHLWFTDGVLQGKRQWDLV; 1190

Request: Requested read-out: Ki. Entry: BLIP K74T (natural protein) AGVMTGAKFTQIQFGMTRQQVLDIAGAENCETGGSFGDSIHCRGHAAGDYYAYATFGFTSAAADAKVDSKSQETLLAPSAPTLTLAKFNQVTVGMTRAQVLATVGQGSCTTWSEYYPAYPSTAGVTLSLSCFDVDGYSSTGFYRGSAHLWFTDGVLQGKRQWDLV
Result: 110
